Assay: Apparent oral clearance in Sprague-Dawley rat at 1 mg/kg, iv
Format: ADME, organism-based
Details: in vivo

- compound: "[2H]C([2H])([2H])C([2H])([2H])[S+]([O-])c1ccccc1Nc1nc(Nc2cc(NC(=O)C=C)c(N(C)CCN(C)C)cc2OC)ncc1Cl (single isomer, unassigned; (-))"
  CL/F: "63.7 mL/min/kg"

----------
Molecular target: EML4-ALK (Homo sapiens, UniProt Q9UM73)
Sequence (Q9UM73 whole entry): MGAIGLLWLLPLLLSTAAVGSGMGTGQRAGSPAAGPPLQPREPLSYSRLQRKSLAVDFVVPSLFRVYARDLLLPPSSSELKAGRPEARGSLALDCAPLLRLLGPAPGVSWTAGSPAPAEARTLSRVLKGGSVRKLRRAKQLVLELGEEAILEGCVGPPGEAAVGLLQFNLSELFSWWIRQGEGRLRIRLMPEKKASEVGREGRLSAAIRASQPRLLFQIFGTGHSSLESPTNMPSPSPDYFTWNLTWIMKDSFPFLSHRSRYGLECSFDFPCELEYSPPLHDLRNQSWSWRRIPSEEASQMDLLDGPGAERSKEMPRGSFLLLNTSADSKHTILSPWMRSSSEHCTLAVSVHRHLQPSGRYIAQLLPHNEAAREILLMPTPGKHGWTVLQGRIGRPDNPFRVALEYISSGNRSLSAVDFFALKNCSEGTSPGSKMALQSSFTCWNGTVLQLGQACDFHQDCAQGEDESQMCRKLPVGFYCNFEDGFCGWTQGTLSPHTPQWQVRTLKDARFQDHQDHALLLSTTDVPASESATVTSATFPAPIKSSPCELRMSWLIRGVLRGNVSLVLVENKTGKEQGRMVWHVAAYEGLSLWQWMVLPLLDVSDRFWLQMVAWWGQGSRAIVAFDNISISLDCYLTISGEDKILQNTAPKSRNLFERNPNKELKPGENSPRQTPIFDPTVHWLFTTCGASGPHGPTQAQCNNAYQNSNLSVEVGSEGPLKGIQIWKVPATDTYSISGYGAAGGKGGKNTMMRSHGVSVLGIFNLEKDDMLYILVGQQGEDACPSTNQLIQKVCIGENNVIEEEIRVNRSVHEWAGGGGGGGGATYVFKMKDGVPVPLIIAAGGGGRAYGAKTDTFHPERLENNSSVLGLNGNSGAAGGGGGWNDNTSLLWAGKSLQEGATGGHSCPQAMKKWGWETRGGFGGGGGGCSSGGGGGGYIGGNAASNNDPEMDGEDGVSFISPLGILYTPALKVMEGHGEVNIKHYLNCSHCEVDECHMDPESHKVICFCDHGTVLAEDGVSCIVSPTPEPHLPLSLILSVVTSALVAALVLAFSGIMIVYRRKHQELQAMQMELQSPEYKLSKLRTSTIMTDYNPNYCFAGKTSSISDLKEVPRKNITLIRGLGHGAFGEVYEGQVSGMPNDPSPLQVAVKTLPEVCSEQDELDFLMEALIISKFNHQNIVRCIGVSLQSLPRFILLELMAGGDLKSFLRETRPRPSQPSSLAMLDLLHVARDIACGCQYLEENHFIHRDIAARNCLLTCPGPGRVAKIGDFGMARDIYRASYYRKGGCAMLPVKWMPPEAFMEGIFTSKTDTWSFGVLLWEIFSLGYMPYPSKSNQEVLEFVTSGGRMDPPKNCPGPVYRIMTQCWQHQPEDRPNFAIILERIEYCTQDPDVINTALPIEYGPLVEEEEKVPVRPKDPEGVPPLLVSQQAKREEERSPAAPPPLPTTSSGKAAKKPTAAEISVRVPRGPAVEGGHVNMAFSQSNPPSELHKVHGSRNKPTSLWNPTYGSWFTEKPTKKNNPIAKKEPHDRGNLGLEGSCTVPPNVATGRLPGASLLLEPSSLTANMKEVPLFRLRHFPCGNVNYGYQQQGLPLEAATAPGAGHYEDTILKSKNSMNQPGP
Sequence (Q9HC35 whole entry, further chain): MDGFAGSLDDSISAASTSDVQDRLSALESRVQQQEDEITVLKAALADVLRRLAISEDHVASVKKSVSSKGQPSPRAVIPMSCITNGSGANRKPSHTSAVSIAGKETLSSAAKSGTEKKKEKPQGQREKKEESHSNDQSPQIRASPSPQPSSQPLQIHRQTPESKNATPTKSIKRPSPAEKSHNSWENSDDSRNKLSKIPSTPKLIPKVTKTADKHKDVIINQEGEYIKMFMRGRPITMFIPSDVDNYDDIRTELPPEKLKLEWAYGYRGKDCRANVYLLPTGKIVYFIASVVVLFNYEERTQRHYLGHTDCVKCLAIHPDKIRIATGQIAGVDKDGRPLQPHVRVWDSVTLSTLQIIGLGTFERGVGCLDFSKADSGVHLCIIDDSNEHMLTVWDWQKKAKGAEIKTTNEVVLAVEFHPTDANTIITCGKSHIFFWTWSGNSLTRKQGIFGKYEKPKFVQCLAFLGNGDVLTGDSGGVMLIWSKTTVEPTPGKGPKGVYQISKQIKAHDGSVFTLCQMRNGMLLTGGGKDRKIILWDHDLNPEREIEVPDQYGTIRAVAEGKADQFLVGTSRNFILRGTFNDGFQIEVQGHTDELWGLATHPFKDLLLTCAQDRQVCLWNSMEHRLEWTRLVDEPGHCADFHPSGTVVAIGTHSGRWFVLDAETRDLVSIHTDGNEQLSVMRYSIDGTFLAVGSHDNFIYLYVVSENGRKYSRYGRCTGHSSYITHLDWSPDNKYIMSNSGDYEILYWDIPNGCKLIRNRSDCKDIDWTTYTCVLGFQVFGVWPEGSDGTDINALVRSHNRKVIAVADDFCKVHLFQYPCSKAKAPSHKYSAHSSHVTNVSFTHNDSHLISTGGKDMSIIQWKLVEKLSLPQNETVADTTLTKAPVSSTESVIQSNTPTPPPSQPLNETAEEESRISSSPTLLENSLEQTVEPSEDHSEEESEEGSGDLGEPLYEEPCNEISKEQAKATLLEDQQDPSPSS
Overview of reported IC50 across a group of compounds:

- compound: "C=CC(=O)Nc1cc(Nc2ncc(Cl)c(Nc3ccc(Cl)cc3[S+]([O-])C(C)C)n2)c(OC)cc1N(C)CCN(C)C (centres undefined)"
  units: "nM"
  IC50: 6.81
- compound: "C=CC(=O)Nc1cc(Nc2ncc(Cl)c(Nc3cccc(Cl)c3[S+]([O-])CC)n2)c(OC)cc1N(C)CCN(C)C (centres undefined)"
  units: "nM"
  IC50: 7.32
- compound: "[2H]C([2H])([2H])C([2H])([S+]([O-])c1ccccc1Nc1nc(Nc2cc(NC(=O)C=C)c(N(C)CCN(C)C)cc2OC)ncc1Cl)C([2H])([2H])[2H] (centres undefined)"
  units: "nM"
  IC50: 10
- compound: "C=CC(=O)Nc1cc(Nc2ncc(Cl)c(Nc3cccc(F)c3[S+]([O-])CC)n2)c(OC)cc1N(C)CCN(C)C (centres undefined)"
  units: "nM"
  IC50: 4.47
